Source listed as paper PMC11281031.

Test system: zebrafish embryos
Experiment: Dose-response zebrafish live assay, single chemicals (developmental toxicity)
Type: in vivo
Settings: single chemical, 2 dpf
measuredEndpoint: concentration at which embryos were relatively normal / symptoms absent
Note to self: number, then unit, no commentary.

Sample records with concentration at which embryos were relatively normal / symptoms absent:
In [3]: df
Out[3]:
                                   compound  assayresult
0  CC1(C)C(C(=O)OC(C#N)c2cccc(Oc3ccccc3)c2)C1(C)C (stereo not shown) [Fenpropathrin]         5 µM
1  CCCCOCN(C(=O)CCl)c1c(CC)cccc1CC [Butachlor]       100 µM
2  CC(C)(C)[C@@H](O)[C@@H](Cc1ccc(Cl)cc1)n1cncn1 (racemic) [Paclobutrazol]        30 µM

Input line: # query: concentration at which embryos were relatively normal / symptoms absent of entry CC(CNCc1ccccc1O)NCc1ccccc1O (stereo not shown) [Motor fuel oil]
Output line: 1 µM

###

Tested on: zebrafish embryos
Test: Dose-response zebrafish live assay, single chemicals (developmental toxicity)
Format: in vivo
Conditions: at 200 µm
measuredEndpoint: effect on embryo development (Figure 11)

Sample records with effect on embryo development (Figure 11):
>>> df
                                   compound             assayresult
0           CCCCOCN(C(=O)CCl)c1c(CC)cccc1CC  pronounced deformities
1  COc1cnc(OC)n2nc(NS(=O)(=O)c3c(OCC(F)F)cccc3C(F)(F)F)nc12    moderate deformities
2  CCCCC(CC)COC(=O)c1ccccc1C(=O)OCC(CC)CCCC (stereo not drawn) [Bis-(2-Ethylhexyl) Phthalate]  pronounced deformities
3  CC1(C)C(C=C(Cl)Cl)C1C(=O)OC(C#N)c1ccc(F)c(Oc2ccccc2)c1 (stereo not drawn)  pronounced deformities

Input line: # query: effect on embryo development (Figure 11) of entry CC(C)=CC1C(C(=O)OCN2C(=O)C3=C(CCCC3)C2=O)C1(C)C (stereo not drawn)
Output line: pronounced deformities

Input line: # query: effect on embryo development (Figure 11) of entry CC/C(=N\OC/C=C/Cl)C1=C(O)CC(C2CCOCC2)CC1=O (stereo not drawn)
Output line: moderate deformities
